molecular target: T1, fibroblast activation protein (FAP) on FAP-expressing human WI-38 fibroblasts (human, UniProt Q12884 1-760); assay: competitive FACS, WI-38 cells, vs Cy5 tracer m3; A = pIC50 >8.0
T1 construct: also called human FAP
Numbered stars: 1 amine (or outer) side, 2 acyl side, 3 side chain; on linkers, the order of the positions; unused ones are H or OH. Bridge positions count the residues as written; N and C are the ends. * marks the point of attachment. TBMB(SCH2CH2NH-DOTA) = O=C(O)CN1CCN(CC(=O)O)CCN(CC(=O)NCCSCc2cc(C[*:1])cc(C[*:2])c2)CCN(CC(=O)O)CC1; Pentanesulfonyl = CCCCCS(=O)(=O)*
Reported property: pIC50 Category (FACS)

## Task May I ask what pIC50 Category (FACS) has been recorded for Pentanesulfonyl-CPPTEFC-OH (linker 1-7 via TBMB(SCH2CH2NH-DOTA); SMILES CCCCCS(=O)(=O)N[C@H]1CSCc2cc(CSCCNC(=O)CN3CCN(CC(=O)O)CCN(CC(=O)O)CCN(CC(=O)O)CC3)cc(c2)CSC[C@@H](C(=O)O)NC(=O)[C@H](Cc2ccccc2)NC(=O)[C@H](CCC(=O)O)NC(=O)[C@H]([C@@H](C)O)NC(=O)[C@@H]2CCCN2C(=O)[C@@H]2CCCN2C1=O, also called 3BP-3691) [Pentyl-SO2-[Cys(tMeBn(DOTA-AET))-Pro-Pro-Thr-Glu-Phe-Cys]-OH] ?
## Result > 8 pIC50

Values compiled from patent US20230212549A1.
